- Target System: platelet COX-1 (Homo sapiens, UniProt P23219)
- Construct: 1 ml aliquots of whole blood were immediately transferred into glass test tubes and left to coagulate at 37° C; endogenous in cells; host or cells: platelets in whole blood of healthy human volunteers
- Sequence (P23219 24-599): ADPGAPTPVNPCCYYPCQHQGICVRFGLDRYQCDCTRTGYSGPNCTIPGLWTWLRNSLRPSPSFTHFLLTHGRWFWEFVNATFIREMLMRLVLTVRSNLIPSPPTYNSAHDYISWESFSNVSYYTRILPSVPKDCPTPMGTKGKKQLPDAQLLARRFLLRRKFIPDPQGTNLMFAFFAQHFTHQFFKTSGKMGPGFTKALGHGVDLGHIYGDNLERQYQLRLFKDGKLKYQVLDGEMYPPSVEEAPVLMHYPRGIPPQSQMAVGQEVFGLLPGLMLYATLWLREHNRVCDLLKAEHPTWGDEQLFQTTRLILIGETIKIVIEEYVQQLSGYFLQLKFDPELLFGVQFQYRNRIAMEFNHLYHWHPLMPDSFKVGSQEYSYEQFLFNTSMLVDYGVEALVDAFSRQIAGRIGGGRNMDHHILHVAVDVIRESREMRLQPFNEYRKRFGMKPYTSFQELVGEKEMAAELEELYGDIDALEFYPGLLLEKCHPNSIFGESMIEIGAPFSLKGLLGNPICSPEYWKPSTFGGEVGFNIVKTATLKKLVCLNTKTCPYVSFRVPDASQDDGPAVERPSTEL
- Experiment Summary: Biosynthesis of TXB2 in human whole blood left to coagulate, index of platelet COX-1 activity
- Type: cell-based
- Condition Context: human whole blood method, coagulation 1 hour at 37° C., TXB2 by RIA
pIC50: −log10 of the molar value.
Readout: pIC50

Below are worked cases with known answers.
# Molecule, pIC50
measured = [
    ("OCc1onc(-c2ccc(Cl)o2)c1-c1ccccc1 [Example 17]", 5.38),
    ("Cc1onc(-c2ccc(Cl)o2)c1-c1ccc(F)cc1 [Example 6]", 5.72),
]

a: CC(=O)OCc1onc(-c2ccc(Cl)o2)c1-c1ccccc1 [Example 18]
b: Cc1onc(-c2ccc(Cl)o2)c1-c1ccccc1F [Example 7]
c: FC(F)(F)c1onc(-c2ccc(Cl)o2)c1-c1ccccc1 [Example 5]
Q: Please list the entries, largest pIC50 first. Answer format: the labels, in the requested order.
Ans: c, b, a
(c: 6.09, b: 5.72, a: 5.28)
